- System: B. subtilis 168 strain
- protocolDetails: Kanamycin A-potentiating activity, growth curves
- Type: cell-based, Bacillus subtilis
- conditionDescription: potentiator concentration in the presence of 0.25 µg Km (MICKm = 2 µg/mL); potentiator varied with an interval of 10 μM
observationType: MIC with Km (B. subtilis)

Lab note: measured MIC with Km (B. subtilis) of Nc1csc(Cn2ccc3ccc(Br)cc32)c1 was 100 µM

Lab note: measured MIC with Km (B. subtilis) of Nc1cc(Cn2ncc3ccc(Br)cc32)sc1C(=O)[O-].[K+] was 90 µM

Lab note: measured MIC with Km (B. subtilis) of Nc1cc(Cn2cc3ccc(Br)cc3n2)sc1C(=O)[O-].[K+] was 70 µM

Lab note: measured MIC with Km (B. subtilis) of Cc1oc(Cn2ncc3ccc(Br)cc32)cc1C(=O)O was 100 µM

====

Please respond with reported CC50 at 72 h for every item in the list.
- protocolDetails: MTT test, cytotoxicity
- Type: cell-based
- conditionDescription: human, HEK293T cells; MTT test, 72 h; concentration required to inhibit 50% cell culture growth; read-out: CC50 of compounds (HEK273T)
Answer shape: numeric part, then the unit.

Lab note: measured CC50 at 72 h of Nc1csc(Cn2ccc3ccc(Br)cc32)c1 [MNS1] was 30 µM

Lab note: measured CC50 at 72 h of Cc1oc(Cn2cc3ccc(Br)cc3n2)cc1C(=O)O [MNS6] was 260 µM

Lab note: measured CC50 at 72 h of Nc1cc(Cn2cc3ccc(Br)cc3n2)sc1C(=O)[O-].[K+] [MNS4] was 87 µM

Lab note: measured CC50 at 72 h of Nc1cc(Cn2ccc3ccc(Br)cc32)sc1C(=O)[O-].[K+] [MNS2] was 25 µM

Lab note: measured CC50 at 72 h of Nc1cc(Cn2ncc3ccc(Br)cc32)sc1C(=O)[O-].[K+] [MNS3] was 190 µM

Lab note: measured CC50 at 72 h of Cc1oc(Cn2ncc3ccc(Br)cc32)cc1C(=O)O [MNS5] was 250 µM
